B1: library; a variant is named by its letters at N, in order (parent)
chain: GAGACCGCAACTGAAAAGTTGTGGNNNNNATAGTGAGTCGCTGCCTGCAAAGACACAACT

- Variants of: B1
- protocol-summary: ligation selection enrichment (abundance after / before one-round selection) (fold); higher = more template-directed ligation activity
- measurement-setup: with T7Psub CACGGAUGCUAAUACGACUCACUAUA; MgCl2 25 mM; 42 °C; 4 h; pH 8.5
# ligation selection enrichment per entry

[
  {
    "variant-designation": "ACCCC",
    "ligation selection enrichment": 0.194
  },
  {
    "variant-designation": "CTAAA",
    "ligation selection enrichment": 0.114
  },
  {
    "variant-designation": "AGACT",
    "ligation selection enrichment": 0.736
  },
  {
    "variant-designation": "CACTG",
    "ligation selection enrichment": 0.286
  },
  {
    "variant-designation": "TGTAA",
    "ligation selection enrichment": 0.267
  },
  {
    "variant-designation": "ATCCG",
    "ligation selection enrichment": 0.765
  },
  {
    "variant-designation": "ACACG",
    "ligation selection enrichment": 0.497
  },
  {
    "variant-designation": "TTGCA",
    "ligation selection enrichment": 0.683
  },
  {
    "variant-designation": "TATTT",
    "ligation selection enrichment": 0.402
  },
  {
    "variant-designation": "GAGAG",
    "ligation selection enrichment": 0.663
  }
]

Problem: Dear colleague, I am looking for the recorded ligation selection enrichment of the following variant: TCGGA
Solution: 0.233

Problem: Dear colleague, I am looking for the recorded ligation selection enrichment of the following variant: GCGAT
Solution: 21.9

Problem: Dear colleague, I am looking for the recorded ligation selection enrichment of the following variant: AAGCG
Solution: 1.09

Problem: Dear colleague, I am looking for the recorded ligation selection enrichment of the following variant: ATAAG
Solution: 0.373

Problem: Dear colleague, I am looking for the recorded ligation selection enrichment of the following variant: CCATC
Solution: 0.121

Problem: Dear colleague, I am looking for the recorded ligation selection enrichment of the following variant: CAACG
Solution: 0.449

Problem: Dear colleague, I am looking for the recorded ligation selection enrichment of the following variant: TTGAC
Solution: 3.32

All values here come from the supplement of paper PMC10219994.
